Listed next: entries and their corresponding kon.
assay_target: T1, recombinant human domain 1-3His6 of the cation-independent mannose-6-phosphate receptor (human, UniProt P11717 41-467)
T1 construct: Biotinylated (NHS-PEG4-biotin) for BLI; Glycosylated; also called hDom1-3His6; hCI-M6PRD1-D3
protocol_description: BLI exp 1, dissoc pH 7

[
  {
    "binder": "anti-CI-M6PR VHH4 (VHH, His6-tagged; made in Pichia pastoris) VHH: QVQLQESGGGLVQAGGSLRLSCAASGRTFSNYVMGWFRQAPGKEREFVGSISQGGKMTYYPDSVKGRFTISRDNAKNTMYLQMDGLKPEDTAVYYCAVSRGYPMVRVSEVDYWGQGTQVTVSS",
    "kon": "572000 M⁻¹ s⁻¹"
  },
  {
    "binder": "anti-CI-M6PR VHH1 (VHH, His6-tagged; made in Pichia pastoris, later also in E. coli WK6) VHH: QVQLQESGGGLVQPGGSLRLSCVASGFTFDRYWMNWLRQIPGKEIEWVSTINTGGTGTYYDDSVKGRFSISRDDAKNTLYLTMNSLKTEDTAVYYCARGATYYRGNSAIRGQGTQVTVSS",
    "kon": "1.25e+06 M⁻¹ s⁻¹"
  },
  {
    "binder": "anti-CI-M6PR VHH6 (VHH, His6-tagged; made in E. coli) VHH: QVQLQESGGGLVQAGGSLRLSCAVSGSISSIGGMGWFRQAPGKQREFVAVILNNSGMTSYADSVKGRFTISRGNSKNTMYLQMNSLKPEDTAVYYCNYSGYWGQGTQVTVSS",
    "kon": "856000 M⁻¹ s⁻¹"
  },
  {
    "binder": "anti-CI-M6PR VHH10 (VHH, His6-tagged; made in Pichia pastoris) VHH: QVQLQESGGGSVQAGGSLRLSCAPAGRTFSRIRMGWFRQAPGKEREFVAAISSGGLSYYADSMKGRFTISRDNAKNTVLLQMNSLEPDDTAVYYCAAVLNDYIDDYVARNPTLYDYWGQGTQVTVSS",
    "kon": "99300 M⁻¹ s⁻¹"
  }
]
